src = patent US20090215758A1

Can you tell me VR1 (rat) (% inhibition compared to 10 μM CP) for the items I'm about to list?
# SYSTEM_NAME: vanilloid receptor 1 (VR1/TRPV1) of the rat species (Rattus norvegicus)
# Construct: The spinal column is removed from beheaded rats; from tissue; host or cells: primary cells from rat dorsal root ganglia (DRGs)
# TEST_PROTOCOL: Functional study on vanilloid receptor 1, FLIPR Ca2+ assay in rat dorsal root ganglia cells
# Format: cell-based
# MEASUREMENT_CONTEXT: test compound 10 μM, 5 min incubation, then 100 nM capsaicin; relative to maximum inhibition with 10 μM capsaicin
Output spec: scalar in %, unitless text.

What value of VR1 (rat) (% inhibition compared to 10 μM CP) has been recorded for this entry: `Br.CC(C)c1ccc(C=C2SC(N3CCOCC3)=NC2=O)cc1`
38.36

Moving on to the next compound: `Br.O=C1N=C(N2CCSCC2)SC1=CC=Cc1ccccc1`
83.13

And what about the compound `CC(C)c1ccc(C=C2SC(N3CCOCC3)=NC2=O)cc1` ?
87.60

Same read-out for `Cc1ccc(C=C2SC(N3CCOCC3)=NC2=O)cc1` ?
78.83

What would you report for `O=C1N=C(N2CCOCC2)SC1=Cc1cccc(C(F)(F)F)c1` ?
102.30

Same thing, different compound: `CC(C)(C)c1ccc(C=C2SC(N3CCOCC3)=NC2=O)cc1`
98.64

###

Please go through the items and note down their EC50.
# SYSTEM_NAME: vanilloid receptor 1 (VR1/TRPV1) of the rat species (Rattus norvegicus, UniProt O35433)
# Construct: The spinal column is removed from beheaded rats; from tissue; host or cells: primary cells from rat dorsal root ganglia (DRGs)
# Sequence (O35433 whole entry): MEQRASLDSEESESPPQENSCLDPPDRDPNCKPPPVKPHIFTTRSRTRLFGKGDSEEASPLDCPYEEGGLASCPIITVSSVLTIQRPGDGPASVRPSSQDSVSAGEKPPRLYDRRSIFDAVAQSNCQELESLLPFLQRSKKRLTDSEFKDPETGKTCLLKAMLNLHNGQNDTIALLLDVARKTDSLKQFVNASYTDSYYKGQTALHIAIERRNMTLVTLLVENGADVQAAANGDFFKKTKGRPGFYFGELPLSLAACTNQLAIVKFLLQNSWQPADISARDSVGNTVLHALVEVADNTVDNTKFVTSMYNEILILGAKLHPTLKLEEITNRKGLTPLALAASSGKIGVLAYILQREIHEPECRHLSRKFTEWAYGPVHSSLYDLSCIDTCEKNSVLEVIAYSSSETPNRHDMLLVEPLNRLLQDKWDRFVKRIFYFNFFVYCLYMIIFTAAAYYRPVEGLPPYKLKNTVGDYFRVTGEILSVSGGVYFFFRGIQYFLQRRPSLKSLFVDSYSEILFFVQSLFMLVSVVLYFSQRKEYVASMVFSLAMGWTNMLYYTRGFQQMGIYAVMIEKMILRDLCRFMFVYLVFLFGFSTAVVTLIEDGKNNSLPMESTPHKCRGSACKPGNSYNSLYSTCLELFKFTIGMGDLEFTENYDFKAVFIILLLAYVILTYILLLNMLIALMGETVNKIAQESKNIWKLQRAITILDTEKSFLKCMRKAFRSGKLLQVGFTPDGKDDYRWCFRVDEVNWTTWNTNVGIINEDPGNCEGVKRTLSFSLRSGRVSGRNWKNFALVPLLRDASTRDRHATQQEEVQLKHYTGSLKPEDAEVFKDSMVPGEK
# TEST_PROTOCOL: Functional study on vanilloid receptor 1, FLIPR Ca2+ assay in rat dorsal root ganglia cells
# Type: cell-based
# MEASUREMENT_CONTEXT: unit inferred
Counter-ions that a name gives are not always drawn.
Express your answer in µM, writing the number without its unit.

State its EC50 on vanilloid receptor 1 (VR1/TRPV1) of the rat species (Rattus norvegicus, UniProt O35433): COc1ccc(C=C2SC(N3CCOCC3)=NC2=O)cc1 [Example 228]
14.3

What about O=C1N=C(N2CCSCC2)SC1=Cc1ccc2ccccc2c1 [Example 54] ?
2.5

Try Br.O=C1N=C(N2CCSCC2)SC1=CC=Cc1ccccc1 [Example 190, hydrobromide] next.
14.3

Same again, this time with O=C1N=C(N2CCOCC2)SC1=Cc1cccc2ccccc12 [Example 209]
14.8

Lookup Cc1ccc(C=CC=C2SC(N3CCOCC3)=NC2=O)cc1 [Example 19]
7.76

Try this compound too: COCCNC1=NC(=O)C(=Cc2ccc(C(C)(C)C)cc2)S1 [Example 216, hydrobromide]
1.5

Subsequent entry: O=C1N=C(N2CCSCC2)SC1=Cc1ccccc1C(F)(F)F [Example 22]
8.48

Repeat with Cc1ccc(C=C2SC(N3CCSCC3)=NC2=O)cc1 [Example 14, hydrobromide]
0.95

Moving on to the next compound: O=C1N=C(N2CCOCC2)SC1=Cc1ccc(OCc2ccccc2)cc1 [Example 21]
6.59

Can you handle O=C1N=C(N2CCSCC2)SC1=Cc1cccc(C(F)(F)F)c1 [Example 195, hydrobromide] next?
2.2

// query: O=C1N=C(N2CCOCC2)SC1=Cc1ccc(Oc2ccccc2)cc1 [Example 17]
6.36

Let us now turn to O=C1N=C(N2CCSCC2)SC1=Cc1cccc2ccccc12 [Example 41]
5.82

Can you check O=C1N=C(N2CCSCC2)SC1=Cc1ccc(OC(F)(F)F)cc1 [Example 24] next?
11.9

Same read-out for CC(C)(C)c1ccc(C=C2SC(N3CCSCC3)=NC2=O)cc1 [Example 198, hydrobromide] ?
1.12

Please do the same for O=C1N=C(N2CCOCC2)SC1=Cc1cccc(Oc2ccccc2)c1 [Example 18] as well.
1.29

###

# SYSTEM_NAME: VR1 (human) (Homo sapiens, UniProt Q8NER1)
# Sequence (Q8NER1 whole entry): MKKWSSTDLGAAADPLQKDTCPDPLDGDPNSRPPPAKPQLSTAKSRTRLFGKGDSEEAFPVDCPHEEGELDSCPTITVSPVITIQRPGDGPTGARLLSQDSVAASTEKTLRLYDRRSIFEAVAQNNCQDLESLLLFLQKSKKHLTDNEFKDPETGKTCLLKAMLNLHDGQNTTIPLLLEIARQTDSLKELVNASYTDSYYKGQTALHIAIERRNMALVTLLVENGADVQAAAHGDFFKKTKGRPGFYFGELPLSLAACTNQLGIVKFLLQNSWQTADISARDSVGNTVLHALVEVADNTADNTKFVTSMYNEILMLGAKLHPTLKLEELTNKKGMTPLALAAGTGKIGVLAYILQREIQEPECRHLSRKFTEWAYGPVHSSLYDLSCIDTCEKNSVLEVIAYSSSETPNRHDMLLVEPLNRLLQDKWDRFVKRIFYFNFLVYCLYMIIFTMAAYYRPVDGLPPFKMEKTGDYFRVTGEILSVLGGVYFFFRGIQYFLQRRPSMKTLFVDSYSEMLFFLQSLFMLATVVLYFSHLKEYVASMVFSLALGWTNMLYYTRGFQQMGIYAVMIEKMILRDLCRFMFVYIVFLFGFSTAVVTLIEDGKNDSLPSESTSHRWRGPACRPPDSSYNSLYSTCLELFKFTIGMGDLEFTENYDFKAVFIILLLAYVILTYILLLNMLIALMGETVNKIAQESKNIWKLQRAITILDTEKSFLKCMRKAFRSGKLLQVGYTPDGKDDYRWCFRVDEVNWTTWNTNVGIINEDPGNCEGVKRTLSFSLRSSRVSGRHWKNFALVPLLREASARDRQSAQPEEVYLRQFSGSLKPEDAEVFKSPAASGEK
# TEST_PROTOCOL: Functional study on vanilloid receptor (VR1), FLIPR Ca2+ assay in CHO K1 cells stably transfected with the VR1 gene
# MEASUREMENT_CONTEXT: unit inferred
Where a name gives a salt, the structure may show the parent alone.
Give log10 of EC50 for every item shown.
Remember, log10 of EC50, in µM.

Entry O=C1N=C(N2CCOCC2)SC1=Cc1cccc2ccccc12 [Example 209] : reported log10 of EC50 = ?
1.45

Moving on to O=C1N=C(N2CCOCC2)SC1=Cc1ccc(Oc2ccccc2)cc1 [Example 17]
1.25

Note, next up: O=C1N=C(N2CCSCC2)SC1=Cc1cccc2ccccc12 [Example 41]
1.03

Next compound up: Cc1ccc(C=C2SC(N3CCSCC3)=NC2=O)cc1 [Example 14, hydrobromide]
0.71

Entry to check: O=C1N=C(N2CCOCC2)SC1=Cc1cccc(Oc2ccccc2)c1 [Example 18]
0.56

Ok, now COCCNC1=NC(=O)C(=Cc2ccc(C(C)(C)C)cc2)S1 [Example 216, hydrobromide]
0.73

Item: O=C1N=C(N2CCSCC2)SC1=Cc1cccc(C(F)(F)F)c1 [Example 195, hydrobromide]
0.77

Note, next up: O=C1N=C(N2CCOCC2)SC1=Cc1ccc(OCc2ccccc2)cc1 [Example 21]
0.93

Consider next the compound COc1ccc(C=C2SC(N3CCOCC3)=NC2=O)cc1 [Example 228] in the same way.
1.42

Then O=C1N=C(N2CCSCC2)SC1=Cc1ccccc1C(F)(F)F [Example 22] ?
0.96

Similarly, Cc1ccc(C=CC=C2SC(N3CCOCC3)=NC2=O)cc1 [Example 19] ?
1.11

Next up: CC(C)(C)c1ccc(C=C2SC(N3CCSCC3)=NC2=O)cc1 [Example 198, hydrobromide]
0.01

###

Could you please report measured activation at 10 µM for the items listed next?
# SYSTEM_NAME: vanilloid receptor 1 (VR1/TRPV1) of the rat species (Rattus norvegicus)
# Construct: The spinal column is removed from beheaded rats; from tissue; host or cells: primary cells from rat dorsal root ganglia (DRGs)
# TEST_PROTOCOL: Functional study on vanilloid receptor 1, FLIPR Ca2+ assay in rat dorsal root ganglia cells
# Type: cell-based
# MEASUREMENT_CONTEXT: test compound 10 μM; Ca2+ signal relative to 10 μM capsaicin (CP); read-out: VR1 (rat) (% stimulation compared to 10 μM CP)
Where a name gives a salt, the structure may show the parent alone.
Give just the number in %; leave the unit off.

Which activation at 10 µM is listed for `O=C1N=C(N2CCN(c3ncccc3Cl)CC2)SC1=Cc1ccc2ccccc2c1` ?
0.4

Next entry: O=C1N=C(N2CCCCCC2)SC1=CC=Cc1ccccc1 [Example 192, hydrobromide]
1.34

Moving on to the next molecule: `O=C1N=C(N2CCOCC2)SC1=Cc1ccc(OC(F)(F)F)cc1`
67.7

And the next one, CC(C)(C)c1ccc(C=C2SC(N3CCSCC3)=NC2=O)cc1 [Example 198, hydrobromide] ?
60.7

# iterate: O=C1N=C(N2CCOCC2)SC1=Cc1cccc(C(F)(F)F)c1 [Example 205, hydrobromide]
79.6

Continue with `O=C1N=C(N2CCOCC2)SC1=CC(=Cc1ccccc1)c1ccccc1`
7.19

Entry to check: `O=C(NC1=NC(=O)C(=Cc2ccc(C(F)(F)F)cc2)S1)Nc1ccccc1C(F)(F)F`
28.5

Next molecule: `O=C1N=C(N2CCSCC2)SC1=Cc1cccc(C(=O)N2CCN(c3nsnc3Cl)CC2)c1`
128

Note, next up: `Cc1ccc(N2CCN(C3=NC(=O)C(=CC=Cc4ccccc4)S3)CC2)nn1`
2.5

Further, for `CC(C)c1ccc(C=C2SC(N3CCSCC3)=NC2=O)cc1` ?
84

Also need `O=C1N=C(N2CCSCC2)SC1=Cc1ccccc1C(F)(F)F` , thanks.
116

Next record, please: `Cc1ccc(C=C2SC(N3CCN(Cc4ccccc4)CC3)=NC2=O)cc1`
0.34

For `O=C1N=C(N2CCSCC2)SC1=Cc1ccccc1` then?
98.3

Likewise for `CN(C)c1ccc(C=C2SC(N3CCOCC3)=NC2=O)cc1` ?
123

Then this molecule: `Cc1ccc(C=C2SC(N3CCCC3)=NC2=O)cc1`
2.14

And for CC(C)(C)c1ccc(C=C2SC(N3CCCC3)=NC2=O)cc1 [Example 199, hydrobromide] ?
42.9

Field entry: O=C1N=C(N2CCSCC2)SC1=Cc1cccc(C(F)(F)F)c1 [Example 195, hydrobromide]
94.3

Request: `COc1cc(C=C2SC(N3CCN(c4ccccc4)CC3)=NC2=O)ccc1O`
73.4

Another molecule: `CC(=CC=C1SC(N2CCOCC2)=NC1=O)c1ccc(C)cc1`
49.6

###

# SYSTEM_NAME: VR1 (human) (Homo sapiens, UniProt Q8NER1)
# Construct: expressed in transfected cells; host or cells: CHO K1 cells (ECACC), stably transfected
# TEST_PROTOCOL: Functional study on vanilloid receptor (VR1), FLIPR Ca2+ assay in CHO K1 cells stably transfected with the VR1 gene
# Format: cell-based
# MEASUREMENT_CONTEXT: test compound 10 μM, 5 min incubation, then 100 nM capsaicin; compared to 10 μM CP
Threshold rule: VR1 (human) (% inhibition compared to 10 μM CP) greater than or equal to 30% is yes (1); below that, no (0).

Say whether `CC(C)(C)c1ccc(C=C2SC(N3CCOCC3)=NC2=O)cc1` shows VR1 (human) (% inhibition compared to 10 μM CP) of 30% or more.
yes (1)

What about `Br.O=C1N=C(N2CCSCC2)SC1=CC=Cc1ccccc1` ?
yes (1)

// next record `Br.Cc1ccc(C=C2SC(N3CCOCC3)=NC2=O)cc1`
yes (1)

Also `O=C1N=C(N2CCOCC2)SC1=Cc1cccc(C(F)(F)F)c1` , if possible.
yes (1)

What do you get for `CC(C)c1ccc(C=C2SC(N3CCOCC3)=NC2=O)cc1` ?
yes (1)

Also, `Cc1ccc(C=C2SC(N3CCOCC3)=NC2=O)cc1` please.
no (0)
